Biological target: Human plasmin (Homo sapiens)
Construct: Human plasmin is purchased; purchased Boehringer Mannheim, Indianapolis, Ind
Sequence (P00747 97-810): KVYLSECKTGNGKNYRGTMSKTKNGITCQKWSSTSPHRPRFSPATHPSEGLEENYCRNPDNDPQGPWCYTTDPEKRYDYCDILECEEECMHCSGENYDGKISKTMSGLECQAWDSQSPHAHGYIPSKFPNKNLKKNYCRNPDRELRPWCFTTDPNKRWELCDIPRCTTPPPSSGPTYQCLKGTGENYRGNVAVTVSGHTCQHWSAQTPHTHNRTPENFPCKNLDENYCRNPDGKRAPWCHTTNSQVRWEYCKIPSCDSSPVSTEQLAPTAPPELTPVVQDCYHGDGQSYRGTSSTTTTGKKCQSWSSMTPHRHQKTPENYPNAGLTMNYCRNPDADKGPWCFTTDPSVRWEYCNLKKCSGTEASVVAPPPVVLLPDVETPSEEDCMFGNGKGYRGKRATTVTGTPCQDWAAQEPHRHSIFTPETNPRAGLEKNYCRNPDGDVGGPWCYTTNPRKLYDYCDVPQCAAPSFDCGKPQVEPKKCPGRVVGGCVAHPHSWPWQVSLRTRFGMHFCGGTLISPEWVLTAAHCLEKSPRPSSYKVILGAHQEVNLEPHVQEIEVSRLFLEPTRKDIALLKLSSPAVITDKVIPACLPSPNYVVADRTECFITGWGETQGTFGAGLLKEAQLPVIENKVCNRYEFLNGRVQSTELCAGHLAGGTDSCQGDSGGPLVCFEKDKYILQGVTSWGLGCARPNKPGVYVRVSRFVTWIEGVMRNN
Sequence (P00747 97-580 partner limits assumed): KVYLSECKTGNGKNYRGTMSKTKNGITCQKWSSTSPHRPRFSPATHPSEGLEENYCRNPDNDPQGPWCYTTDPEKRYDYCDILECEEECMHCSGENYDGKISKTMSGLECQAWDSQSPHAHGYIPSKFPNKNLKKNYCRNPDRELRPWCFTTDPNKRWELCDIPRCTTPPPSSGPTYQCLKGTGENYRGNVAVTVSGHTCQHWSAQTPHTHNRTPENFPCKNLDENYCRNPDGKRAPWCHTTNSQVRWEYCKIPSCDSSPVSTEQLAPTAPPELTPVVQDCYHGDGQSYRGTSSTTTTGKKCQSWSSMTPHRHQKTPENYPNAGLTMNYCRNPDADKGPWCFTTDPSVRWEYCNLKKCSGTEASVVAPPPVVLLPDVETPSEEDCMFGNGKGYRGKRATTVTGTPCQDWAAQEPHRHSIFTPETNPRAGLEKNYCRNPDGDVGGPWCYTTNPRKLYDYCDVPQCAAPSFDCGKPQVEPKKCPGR
Experiment: Kass with plasmin, chromogenic substrate
Type: biochemical
Conditions: substrate H-D-Val-Leu-Lys-p-nitroanilide
Counter-ions that a name gives are not always drawn.
result.type: Kass Plasmin

Worked cases, answers included:
> print(dat)
                                   compound   result.type          endpoint.result
1  CCS(=O)(=O)N[C@H](Cc1ccccc1)C(=O)N1CCC[C@H]1C(=O)NCCc1ccc(NC(=N)N)cc1  Kass Plasmin  < 0.001 × 10^6 (L/mole)
2  NC[C@H]1CC[C@H](CNC(=O)[C@@H]2CCCN2C(=O)[C@H](N)Cc2ccccc2)CC1 (relative stereo)  Kass Plasmin  0.00087 × 10^6 (L/mole)
3  N=C(N)Nc1ccc(CNC(=O)[C@@H]2CCCN2C(=O)[C@@H]2NCC[C@@H]3CCCC[C@@H]32)cc1  Kass Plasmin  < 0.001 × 10^6 (L/mole)
4  O=C(O)CN[C@H](CC1CCCCC1)C(=O)N1CCC[C@H]1C(=O)NCC1CCNCC1  Kass Plasmin  < 0.001 × 10^6 (L/mole)

INPUT: GET /values?readout=Kass Plasmin&system=Human plasmin (Homo sapiens)&item= CCS(=O)(=O)N[C@H](Cc1ccccc1)C(=O)N1CCC[C@H]1C(=O)NCc1cccc(C(=N)N)c1
OUTPUT: < 0.001 × 10^6 (L/mole)

INPUT: GET /values?readout=Kass Plasmin&system=Human plasmin (Homo sapiens)&item= Nc1ccc(CCNC(=O)[C@@H]2CCCN2C(=O)[C@H](N)Cc2ccccc2)cc1 [Example 14, D-Phe-Pro-p-NHCH2 CH2 C6 H4 NH2.HCl]
OUTPUT: 0.000046 × 10^6 (L/mole)

INPUT: GET /values?readout=Kass Plasmin&system=Human plasmin (Homo sapiens)&item= N=C(N)N1CCC(CCNC(=O)[C@@H]2CCCN2C(=O)[C@@H](CC2CCCCC2)NCC(=O)O)CC1
OUTPUT: 0.01 × 10^6 (L/mole)

INPUT: GET /values?readout=Kass Plasmin&system=Human plasmin (Homo sapiens)&item= N=C(N)NCCCNC(=O)[C@@H]1CCCN1C(=O)[C@H](N)Cc1ccccc1 [Example 7, D-Phe-Pro-NH(CH2)3 NHC(NH)NH2.HCl]
OUTPUT: 0.00022 × 10^6 (L/mole)

INPUT: GET /values?readout=Kass Plasmin&system=Human plasmin (Homo sapiens)&item= N=C(N)c1cccc(CNC(=O)[C@@H]2CCCN2C(=O)[C@H](N)Cc2ccccc2)c1 [Example 16, D-Phe-Pro-m-NHCH2 C6 H4 C(NH)NH2.0.75HCl]
OUTPUT: 0.0017 × 10^6 (L/mole)

INPUT: GET /values?readout=Kass Plasmin&system=Human plasmin (Homo sapiens)&item= N=C(N)c1cccc(CCCNC(=O)[C@@H]2CCCN2C(=O)[C@@H]2NCC[C@@H]3CCCC[C@@H]32)c1
OUTPUT: < 0.001 × 10^6 (L/mole)

INPUT: GET /values?readout=Kass Plasmin&system=Human plasmin (Homo sapiens)&item= N=C(N)Nc1cccc(CCNC(=O)[C@@H]2CCCN2C(=O)[C@@H]2NCC[C@@H]3CCCC[C@@H]32)c1
OUTPUT: < 0.001 × 10^6 (L/mole)

---

System: Human plasma
Assay: Human plasma anticoagulation, prothrombin time (PT)
Assay type: biochemical
Conditions: concentration required to double the PT, linear extrapolation
Overview of reported Human Plasma Anticoagulation 2× Clotting time PT across a group of compounds:

Worked cases, answers included:
> print(dat)
                                   compound  assay.system  endpoint.result
1  N=C(N)c1cccc(CCNC(=O)[C@@H]2CCCN2C(=O)[C@@H]2NCC[C@@H]3CCCC[C@@H]32)c1 [Example 29]  Human plasma     15,800 ng/mL
2  N=C(N)c1cccc(CNC(=O)[C@@H]2CCCN2C(=O)[C@@H]2NCC[C@@H]3CCCC[C@@H]32)c1 [Example 25]  Human plasma     40,400 ng/mL
3  CCS(=O)(=O)N[C@H](Cc1ccccc1)C(=O)N1CCC[C@H]1C(=O)NCCc1ccc(NC(=N)N)cc1 [Example 35]  Human plasma     78,400 ng/mL

Moving on to the next compound.
INPUT: # lookup: Human Plasma Anticoagulation 2× Clotting time PT of N=C(N)Nc1ccc(CNC(=O)[C@@H]2CCCN2C(=O)[C@@H]2NCC[C@@H]3CCCC[C@@H]32)cc1 [Example 38]
OUTPUT: 11,100 ng/mL
